- Procedure Summary: melting temperature; fluorescence melt of hairpins on a sequencing array, two-state fit, raised by 9.35 °C to match UV melts
- Measurement Parameters: sodium 0.088 M
Hi all, reminder that labels come from Tm, split as one = under 50 °C, two = from 50 °C up to 60 °C, three = 60 °C and over

• GGCACACGAAAGTGGCC (((.(((....)))))) = three
• CGGGCGGAAACGCATCCG ((((((....)))..))) = one
• GTGCATGGAAACGTGCAC (((((.(....).))))) = two
• GTCCTACGAAAGTAGAC (((.(((....)))))) = one
• GGTTAACGAAAGTTCACC (((.(((....))).))) = one
• GCCAACGAAAGTTTAGGC ((((((....)))..))) = one
• GCTTAACGAAAGTTGAGC (((.(((....))).))) = two
• GTCTCCCGAAAGGGTGAC (((.(((....))).))) = two
• GCGAGGCGAAAGCGGCGC (((..((....))..))) = three
• GTGCCCGAAAGGGAGCAC ((((((....)))..))) = two
• GCGGCCAGCCGC ((((....)))) = three
• CGCGGAATGGTCCGCG ((((((....)))))) = three
• GCACGGCGAAAGCCCAGC ((..(((....)))..)) = one
• GGTTTGGGAAACCGAACC ((((.((....)).)))) = two
• GCCAGGAAACTGGC (((((....))))) = three
• GAAGTACGAAAGTAGTTC (((.(((....))).))) = one
• GATCCATGTATGGATC ((((((....)))))) = two
• GGACCGGGAAACCGATCC (((.(((....))).))) = one
• GCCGCCCCGAAAGGGGGC (((..(((....)))))) = three
• GATCACACACGTGATC ((((((....)))))) = two
• GATCTAGAATTAGATC ((((((....)))))) = one
• GTGTTTCCGAAAGGACAC (((..(((....)))))) = one
• GTATCCGAAAGGAGGTAC ((((((....)))..))) = one
